Hello, the source for this data is ChEMBL document CHEMBL5154747, in case you need it.

Test system: SNB-19
Test: Anticancer activity against human SNB-19 cells assessed as cell growth inhibition incubated for 48 hrs by SRB assay
Type: functional
Conditions: read-out: LC50 (the source's name)
Below, each entry is listed alongside its reported CC50.
Recorded Metric: CC50

Molecule	Recorded Metric	Value Observed
O=c1[nH]cc(F)c(=O)[nH]1 [FLUOROURACIL]	CC50	> 100 µM
Cc1nn(-c2ccccc2)cc1/C=N/Nc1nc(Nc2ccccc2)nc(Nc2ccc(S(N)(=O)=O)cc2)n1	CC50	> 100 µM
NS(=O)(=O)c1ccc(Nc2nc(N/N=C/c3ccc(C(F)(F)F)cc3)nc(Nc3ccccc3)n2)cc1	CC50	40.6 µM
NS(=O)(=O)c1ccc(Nc2nc(N/N=C/c3ccccn3)nc(Nc3ccccc3)n2)cc1	CC50	> 100 µM
